assay-target: Hexokinase-4 (Homo sapiens) (UniProt P35557)
measurement-protocol: Activation of human recombinant glucokinase expressed in Escherichia coli coexpressing G6PDH at 10 uM using 20 mM glucose measured as ratio of enzyme activation in treated to untreated control by G6PDH coupled continuous spectrophotometric assay
value-kind: Ratio

[[record]]
smiles_str = "CC(=O)c1ccccc1-c1cc(C(=O)Nc2nc3c(s2)CCCC3)cs1"
reported_value = 1.26

[[record]]
smiles_str = "CC(=O)Oc1ccccc1-c1cc(C(=O)Nc2nc3c(s2)CCC3)c(C)o1"
reported_value = 0.88

[[record]]
smiles_str = "Cc1oc(-c2ccccc2S(C)(=O)=O)cc1C(=O)Nc1nc2c(s1)CCC2"
reported_value = 1.72

[[record]]
smiles_str = "Cc1oc(-c2cccnc2)cc1C(=O)Nc1nc2c(s1)CCC2"
reported_value = 1.08

[[record]]
smiles_str = "Cc1cc(C(=O)Nc2nc3c(s2)CCCC3)c(C)o1"
reported_value = 1.14

[[record]]
smiles_str = "CCc1nc(NC(=O)c2cc(C)oc2C)sc1CC"
reported_value = 0.96

[[record]]
smiles_str = "CC(=O)CCc1cc(C(=O)Nc2nc3c(s2)CCC3)c(C)o1"
reported_value = 1.44

[[record]]
smiles_str = "Cc1oc(-c2ccccc2C#N)cc1C(=O)Nc1nc2c(s1)CCC2"
reported_value = 1.1

[[record]]
smiles_str = "Cc1nc(C)c(C(=O)Nc2nc3c(s2)CCCC3)s1"
reported_value = 0.89

[[record]]
smiles_str = "Cc1oc(-c2ccccc2[N+](=O)[O-])cc1C(=O)Nc1nc2c(s1)CCC2"
reported_value = 1.46

[[record]]
smiles_str = "CCc1sc(-c2ccccc2C(C)=O)cc1C(=O)Nc1nc2c(s1)CCCC2"
reported_value = 1.23


* * *

assay-target: Hexokinase-4 (Homo sapiens)
Sequence (whole entry): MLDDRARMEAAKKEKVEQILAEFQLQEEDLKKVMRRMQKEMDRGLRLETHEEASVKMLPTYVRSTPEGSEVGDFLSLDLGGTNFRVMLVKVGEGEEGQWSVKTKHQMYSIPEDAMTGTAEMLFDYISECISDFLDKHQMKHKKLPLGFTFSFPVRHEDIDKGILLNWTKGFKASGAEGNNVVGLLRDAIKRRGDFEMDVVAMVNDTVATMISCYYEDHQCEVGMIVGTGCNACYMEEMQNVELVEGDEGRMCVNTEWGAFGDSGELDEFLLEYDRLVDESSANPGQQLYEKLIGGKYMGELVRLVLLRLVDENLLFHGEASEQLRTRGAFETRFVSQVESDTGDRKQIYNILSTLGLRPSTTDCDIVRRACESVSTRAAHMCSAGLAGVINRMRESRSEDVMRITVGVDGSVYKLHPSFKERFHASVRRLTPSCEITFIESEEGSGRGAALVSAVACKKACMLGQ
measurement-protocol: Activation of human recombinant glucokinase expressed in Escherichia coli coexpressing G6PDH at 10 uM using 5 mM glucose measured as ratio of enzyme activation in compound treated to Ro-28-1675 by G6PDH coupled continuous spectrophotometric assay
value-kind: Ratio

Recorded results for 6 molecules are shown here.
[[record]]
molecule = "Cc1cc(C(=O)Nc2nc3c(s2)CCC3(C)C)c(C)o1"
reported_value = 0.001

[[record]]
molecule = "CCc1oc(-c2ccccc2C(C)=O)cc1C(=O)Nc1nc2c(s1)CCC2"
reported_value = 0.193

[[record]]
molecule = "Cc1oc(CO)cc1C(=O)Nc1nc2c(s1)CCC2"
reported_value = 0.069

[[record]]
molecule = "Cc1oc(-c2cccnc2)cc1C(=O)Nc1nc2c(s1)CCC2"
reported_value = 0.021

[[record]]
molecule = "Cc1sc(-c2ccccc2C(N)=O)cc1C(=O)Nc1nc2c(s1)CCC2"
reported_value = 0.714

[[record]]
molecule = "CCc1nc(NC(=O)c2cc(C)oc2C)sc1CC"
reported_value = 0.022


(A) Cc1cc(C(=O)Nc2nc3c(s2)CCC3)c(C)o1
(B) CC(=O)Oc1ccccc1-c1cc(C(=O)Nc2nc3c(s2)CCC3)c(C)o1
# query: argmin of Ratio over A and B Respond with the label that goes with your answer.
B

* * *

assay-target: Hexokinase-4 (Homo sapiens)
measurement-protocol: Activation of human recombinant glucokinase expressed in Escherichia coli coexpressing G6PDH at 10 uM using 5 mM glucose measured as ratio of enzyme activation in treated to untreated control by G6PDH coupled continuous spectrophotometric assay
value-kind: Ratio

[[record]]
smiles_str = "O=C(Nc1nc2c(s1)CCCC2)c1cccnc1"
value_kind = "Ratio"
reported_value = 1.06

[[record]]
smiles_str = "Cc1oc(-c2ccccn2)cc1C(=O)Nc1nc2c(s1)CCC2"
value_kind = "Ratio"
reported_value = 1.18

[[record]]
smiles_str = "Cc1cc(C(=O)Nc2nc3c(o2)CCCC3)c(C)o1"
value_kind = "Ratio"
reported_value = 0.9


* * *

assay-target: Hexokinase-4 (Homo sapiens)
Sequence (whole entry): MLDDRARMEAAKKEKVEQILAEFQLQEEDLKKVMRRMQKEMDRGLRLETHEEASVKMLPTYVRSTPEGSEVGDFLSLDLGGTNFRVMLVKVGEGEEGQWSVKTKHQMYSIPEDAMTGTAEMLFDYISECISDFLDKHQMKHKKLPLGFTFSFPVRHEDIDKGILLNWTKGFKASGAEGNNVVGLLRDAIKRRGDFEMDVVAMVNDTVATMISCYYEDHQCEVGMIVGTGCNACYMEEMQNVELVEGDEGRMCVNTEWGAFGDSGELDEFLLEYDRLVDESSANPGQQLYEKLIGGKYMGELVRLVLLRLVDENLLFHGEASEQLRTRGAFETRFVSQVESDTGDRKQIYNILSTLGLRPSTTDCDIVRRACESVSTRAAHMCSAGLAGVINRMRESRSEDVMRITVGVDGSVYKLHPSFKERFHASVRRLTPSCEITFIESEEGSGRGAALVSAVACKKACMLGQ
measurement-protocol: Activation of human recombinant glucokinase expressed in Escherichia coli coexpressing G6PDH at 10 uM using 20 mM glucose measured as ratio of enzyme activation in compound treated to Ro-28-1675 by G6PDH coupled continuous spectrophotometric assay
value-kind: Ratio

(a) COC(=O)c1ccccc1-c1cc(C(=O)Nc2nc3c(s2)CCC3)c(C)o1
(b) Cc1cc(C(=O)Nc2nc3c(s2)CCCCC3)c(C)o1
Of a and b , whose reported Ratio is numerically smaller? Answer = label.
b

* * *

assay-target: Hexokinase-4 (Homo sapiens) (UniProt P35557)
Sequence (whole entry): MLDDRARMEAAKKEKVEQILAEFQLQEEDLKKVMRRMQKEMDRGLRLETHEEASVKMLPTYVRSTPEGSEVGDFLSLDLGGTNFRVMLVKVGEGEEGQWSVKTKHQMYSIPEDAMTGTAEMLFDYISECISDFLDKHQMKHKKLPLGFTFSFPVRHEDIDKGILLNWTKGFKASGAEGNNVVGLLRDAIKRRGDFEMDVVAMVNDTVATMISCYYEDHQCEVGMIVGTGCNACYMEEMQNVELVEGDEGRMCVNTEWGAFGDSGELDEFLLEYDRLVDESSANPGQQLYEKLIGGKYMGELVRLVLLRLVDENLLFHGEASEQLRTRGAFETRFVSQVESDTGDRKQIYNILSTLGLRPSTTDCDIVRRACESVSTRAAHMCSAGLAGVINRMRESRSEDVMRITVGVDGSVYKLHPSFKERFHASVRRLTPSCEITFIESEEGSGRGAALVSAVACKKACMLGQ
measurement-protocol: Activation of human recombinant glucokinase expressed in Escherichia coli coexpressing G6PDH at 10 uM using 5 mM glucose measured as ratio of enzyme activation in compound treated to Ro-28-1675 by G6PDH coupled continuous spectrophotometric assay
value-kind: Ratio

[[record]]
compound = "Cc1csc(NC(=O)c2cc(C)oc2C)n1"
reported_value = 0.068

[[record]]
compound = "COc1ccccc1-c1cc(C(=O)Nc2nc3c(s2)CCC3)c(C)o1"
reported_value = -0.023

[[record]]
compound = "Cc1cc(C(=O)Nc2nc3c(s2)C2CCC3C2)c(C)o1 (configuration not stated)"
reported_value = 0.059

[[record]]
compound = "CC(=O)c1cccc(-c2cc(C(=O)Nc3nc4c(s3)CCC4)c(C)o2)c1"
reported_value = 0

[[record]]
compound = "Cc1oc(-c2ccccc2C(=O)O)cc1C(=O)Nc1nc2c(s1)CCC2"
reported_value = -0.023


(a) Cc1cc(C(=O)Nc2nc3c(s2)CCCC3)c(C)o1
(b) CCc1sc(-c2ccccc2C(C)=O)cc1C(=O)Nc1nc2c(s1)CCCC2
Compare reported Ratio values for a and b . Which is lower? Bench note: the answer is the label of the chosen record.
a

* * *

assay-target: Hexokinase-4 (Homo sapiens)
measurement-protocol: Activation of human recombinant glucokinase expressed in Escherichia coli coexpressing G6PDH at 10 uM using 20 mM glucose measured as ratio of enzyme activation in compound treated to Ro-28-1675 by G6PDH coupled continuous spectrophotometric assay
value-kind: Ratio

[[record]]
smiles_str = "CC(=O)c1ccccc1-c1cc(C(=O)Nc2nc3c(s2)CCCC3)cs1"
reported_value = 0.214


(a) CC(=O)c1cc(C(=O)Nc2nc3c(s2)CCC3)c(C)o1
(b) CC(=O)c1ccccc1-c1cc(C(=O)Nc2nc3c(s2)CCC3)co1
(c) Cc1cc(C(=O)Nc2nc3c(s2)CCC3(C)C)c(C)o1
(d) COCc1ccccc1-c1cc(C(=O)Nc2nc3c(s2)CCC3)c(C)o1
Arrange by Ratio, high to low. Please list the labels in the order you were asked to rank them.
b, a, d, c
(b: 0.275, a: -0.003, d: -0.016, c: -0.032)

These entries and their values trace back to ChEMBL document CHEMBL1821720.
